tested on: Mycobacterium tuberculosis Erdman (autoluminescent); assay: Einf, fitted maximum growth inhibition of three-drug combination (fraction); higher = stronger maximal inhibition; details: in vitro model: dormancy (butyrate + nitrate, low O2); time point: constant (~7 days, model-specific)
Exercise: for every item that follows, state its recorded Einf.
API note: the answer field is a bare number with no unit suffix.

The molecule CC(=O)NC[C@H]1CN(c2ccc(N3CCOCC3)c(F)c2)C(=O)O1 [linezolid] + COc1c(N2C[C@@H]3CCCN[C@@H]3C2)c(F)cc2c(=O)c(C(=O)O)cn(C3CC3)c12 [moxifloxacin] + NC(=O)c1cnccn1 [pyrazinamide] showed Einf equal to 0.855

The molecule NNC(=O)c1ccncc1 [isoniazid] + CO[C@H]1/C=C/O[C@@]2(C)Oc3c(C)c(O)c4c(O)c(c(/C=N/N5CCN(C6CCCC6)CC5)c(O)c4c3C2=O)NC(=O)/C(C)=C\C=C\[C@H](C)[C@H](O)[C@@H](C)[C@@H](O)[C@@H](C)[C@H](OC(C)=O)[C@@H]1C [rifapentine] + CO[C@H]1/C=C/O[C@@]2(C)Oc3c(C)c(O)c4c(O)c(c(/C=N/N5CCN(C)CC5)c(O)c4c3C2=O)NC(=O)/C(C)=C\C=C\[C@H](C)[C@H](O)[C@@H](C)[C@@H](O)[C@@H](C)[C@H](OC(C)=O)[C@@H]1C [rifampicin] showed Einf equal to 0.859

The molecule CC[C@@H](CO)NCCN[C@@H](CC)CO [ethambutol] + O=[N+]([O-])c1cn2c(n1)OC[C@@H](OCc1ccc(OC(F)(F)F)cc1)C2 [pretomanid] + NC(=O)c1cnccn1 [pyrazinamide] showed Einf equal to 0.844
